Heads up, these compounds all have log10(CC50) values measured for A549 cells.
Log scale reminder: CC50 in µM, then log10 taken.

Solved cases (2 shown):
In [3]: df
Out[3]:
                               structure  experimentalvalue
0  CCc1cccc(N=C(C)c2c(C)cc(=O)n(O)c2O)c1               1.22
1    CC(=Nc1ccccc1Cl)c1c(C)cc(=O)n(O)c1O               1.91

Problem: What log10(CC50) value was documented for this compound, CC(=Nc1ccc(C(F)(F)F)cc1)c1c(C)cc(=O)n(O)c1O ?
Result: 1.86

Problem: One more compound: CC[C@H](C)[C@H](NC(=O)OCC1c2ccccc2-c2ccccc21)C(=O)Sc1cccccc1=O
Result: 1.83

Problem: Check COC(=O)c1c(C)cc(O)c(=O)c(O)c1Br too.
Result: 1.98

Problem: Here is the next compound: Cc1cc(O)c(=O)c(O)cc1C(=O)N1CCCCC1
Result: 2.35

Problem: Can you handle O=C1C=CC(=O)c2ccccc21 next?
Result: 1.44

----------
system: RVFV MP-12; experiment: microbe, parasite or virus in culture; assay type: cell-based, Rift Valley fever virus; conditions: read-out: Estimated EC50
Label 1 when EC50 is strictly below 7 µM; at or above that, label 0.

Problem: Consider CC(=O)c1c(C)cc(O)c(=O)c(O)c1-c1ccccc1 [Compound 330] . Does its EC50 lie strictly below 7 µM?
Result: 1

----------
EC50 values for the compounds below.
test system: RVFV strain MP-12; experiment: microbe, parasite or virus in culture; format: cell-based, Rift Valley fever virus; settings: read-out: EC50
State just the number; it will be interpreted in µM.

Worked cases, EC50 given:
In [3]: df
Out[3]:
                                  structure  measurementtype  experimentalvalue
0           COC(=O)c1c(C)cc(O)c(=O)c(O)c1Br             EC50               40.8
1  Cc1cc(O)c(=O)c(O)cc1C(=O)NCc1ccc(-c2ccccc2)cc1             EC50               18.6

Problem: Under RVFV strain MP-12: EC50 value of Cc1ccc(/C=C/C(=O)c2ccccc(=O)c2O)cc1 ?
Result: 27.3

Problem: What do you have for CC(=O)c1c(C)cc(O)c(=O)c(O)c1Br ?
Result: 34

Problem: Entry COc1ccc(/C=C/C(=O)c2ccccc(=O)c2O)cc1 please
Result: 55.5

Problem: Moving on to O=c1c(O)cccc(SCCc2ccccc2)c1O
Result: 14.3

Problem: Try the compound Cc1cc(O)c(=O)c(O)cc1C(=O)N1CCCCC1
Result: 11.9

----------
system: RVFV MP-12; experiment: microbe, parasite or virus in culture; format: cell-based, Rift Valley fever virus; details: Rift Valley fever virus, Vero, read-out: Estimated EC50
measurementType: EC50

The examples below pair each entry with its known result.
>>> df
                                   compound  testsystem  measurementtype  experimentalvalue
0                O=C(Cc1ccccc1)Sc1cccccc1=O  RVFV MP-12             EC50             0.3 µM
1          Cc1cc(O)c(=O)c(O)cc1C(=O)c1cccs1  RVFV MP-12             EC50            1.77 µM
2  CCCCCCS(=O)(=O)c1ccc(S(=O)(=O)CCCCCC)c(O)c(=O)c1O  RVFV MP-12             EC50           > 120 µM
3           CC(C)Sc1ccc(SC(C)C)c(O)c(=O)c1O  RVFV MP-12             EC50              12 µM
4             CCCCSc1ccc(SCCCC)c(O)c(=O)c1O  RVFV MP-12             EC50            5.62 µM
5  NC(=O)c1ncn([C@@H]2O[C@H](CO)[C@@H](O)[C@H]2O)n1 [Ribavirin, reference compound]  RVFV MP-12             EC50              22 µM
6  C/C(=N\c1ccc(Cl)c(Cl)c1)c1c(C)cc(O)n(O)c1=O  RVFV MP-12             EC50              10 µM
7  CC(C)c1cccc(=O)c(O)c1 [Compound 47, β-thujaplicin, reference compound]  RVFV MP-12             EC50           > 120 µM
8      O=C(/C=C/c1cccc(Br)c1)c1ccccc(=O)c1O  RVFV MP-12             EC50               2 µM
9  Cc1cc(O)c(=O)c(O)c(O)c1C(=O)c1ccc(-c2ccccc2)cc1  RVFV MP-12             EC50               6 µM

Problem: Form field: reported EC50 of O=c1c(O)c(-c2ccc(O)c(O)c2)oc2cc(O)c(O)c(O)c12
Result: > 120 µM

Problem: # repeat for Cc1cc(O)c(=O)c(O)cc1C(=O)N[C@@H](CCC(=O)OC(C)(C)C)C(=O)OC(C)(C)C
Result: 6.66 µM

Problem: What about Cc1cc(O)c(=O)c(O)cc1C(=O)N1CCN(C(c2ccc(F)cc2)c2ccc(F)cc2)CC1 ?
Result: 3.44 µM

Problem: CC(C)c1ccc(O)c(=O)cc1 [Compound 48, γ -thujaplicin, reference compound] ?
Result: > 120 µM

Problem: Next up: CCCCNC(=O)c1cc(O)c(=O)c(O)cc1C
Result: 6 µM

Problem: Another compound to look at: Cc1cc(O)c(=O)c(O)cc1S(=O)(=O)c1ccccc1
Result: 3 µM

Problem: Follow-up entry: Cc1cc(O)c(=O)c(O)cc1C(=O)c1ccccc1O
Result: 4 µM

Problem: For O=c1c(O)cccc(SCc2ccccc2)c1O then?
Result: 7 µM

----------
target: Human RNase H1 (Homo sapiens, UniProt O60930); construct: made in house; host or cells: E. coli; experiment: biochemical
Sequence (O60930 whole entry): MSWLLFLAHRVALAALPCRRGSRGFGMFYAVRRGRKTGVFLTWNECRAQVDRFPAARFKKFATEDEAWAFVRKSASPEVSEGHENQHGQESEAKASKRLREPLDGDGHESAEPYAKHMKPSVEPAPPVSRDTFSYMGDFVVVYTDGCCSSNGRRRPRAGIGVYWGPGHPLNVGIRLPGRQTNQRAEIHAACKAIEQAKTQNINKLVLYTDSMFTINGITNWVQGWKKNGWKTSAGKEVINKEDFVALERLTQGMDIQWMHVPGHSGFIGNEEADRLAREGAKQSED
Response field label: string, one of class 1 (IC50 strictly below 80 µM) or class 0.

In [3]: df
Out[3]:
                                  structure                                testsystem  discretelabel
0               O=c1c(O)cccc(SCc2ccccc2)c1O  Human RNase H1 (Homo sapiens, UniProt O60930)        class 1
1  C/C(=N\c1ccc(Cl)c(Cl)c1)c1c(C)cc(O)n(O)c1=O  Human RNase H1 (Homo sapiens, UniProt O60930)        class 0
2        Cc1cc(O)c(=O)c(O)cc1C(=O)c1ccccc1O  Human RNase H1 (Homo sapiens, UniProt O60930)        class 1
3  Cc1cc(O)c(=O)c(O)cc1C(=O)N1CCN(C(c2ccc(F)cc2)c2ccc(F)cc2)CC1  Human RNase H1 (Homo sapiens, UniProt O60930)        class 1
4            CCCCNC(=O)c1cc(O)c(=O)c(O)cc1C  Human RNase H1 (Homo sapiens, UniProt O60930)        class 0
5                O=C(Cc1ccccc1)Sc1cccccc1=O  Human RNase H1 (Homo sapiens, UniProt O60930)        class 0

Problem: Criterion: IC50 strictly below 80 µM. Is it met by Cc1cc(O)c(=O)c(O)cc1C(=O)c1cccs1 ?
Result: class 1

Problem: Again, but for Cc1cc(O)c(=O)c(O)c(O)c1C(=O)c1ccc(-c2ccccc2)cc1
Result: class 0

Problem: Same read-out for O=C(/C=C/c1cccc(Br)c1)c1ccccc(=O)c1O ?
Result: class 0

Problem: Ok, now Cc1cc(O)c(=O)c(O)cc1S(=O)(=O)c1ccccc1
Result: class 0

----------
experiment: in vitro; conditions: human
Criterion: CC50 strictly less than 5 µM. Met: 1. Not met: 0.

// below: answered compounds
In [3]: df
Out[3]:
                                  structure  discretelabel
0        Cc1cc(O)c(=O)c(O)cc1C(=O)c1ccccc1O              0
1             CCCCSc1ccc(SCCCC)c(O)c(=O)c1O              1
2  Cc1cc(O)c(=O)c(O)cc1C(=O)N1CCN(C(c2ccc(F)cc2)c2ccc(F)cc2)CC1              1
3  Cc1cc(O)c(=O)c(O)c(O)c1C(=O)c1ccc(-c2ccccc2)cc1              0

Problem: Hi there! Is CC50 for CC(C)Sc1ccc(SC(C)C)c(O)c(=O)c1O below 5 µM, do you know?
Result: 0
